A collection of compounds and their measured % haemolysis
Test system: Equine erythrocytes
Type: cell-based, horse
Settings: red cells of equine, 100 μg mL^–1
Where a SMILES comes first, the peptide text is derived from it. [ ]: non-standard residue; d: D form. The star is where a group is joined. d(aIle) = CC[C@H](C)[C@@H](N)C(=O)O; dOrn = NCCC[C@@H](N)C(=O)O; dDab = NCC[C@@H](N)C(=O)O; Octanoyl = CCCCCCCC(=O)*; Orn = NCCC[C@H](N)C(=O)O
Numeric only. Scale: %

# count of solved cases: 2
compound	parameterMeasured	endpointValue
CCCCCCCC(=O)N[C@@H](C(=O)N[C@H](CCCN)C(=O)NCC(=O)N[C@H](CO)C(=O)N[C@H](Cc1c[nH]c2ccccc12)C(=O)N[C@@H](CO)C(=O)N[C@@H](CCCN)C(=O)N[C@H](CCCN)C(=O)N[C@@H](Cc1ccccc1)C(=O)N[C@@H](CCC(=O)O)C(=O)N[C@H](C(=O)N[C@@H](C(=O)N[C@@H](C)C(=O)O)C(C)C)C(C)C)C(C)C [Peptide 7, Oct-TriA2 (2,8-D-Orn, 7-Orn)] (Octanoyl-[dV][dOrn]G[dS][dW]S[Orn][dOrn]FEV[dV]A-OH)	% haemolysis	39.8
CCCCCCCC(=O)N[C@@H](C(=O)N[C@H](CCN)C(=O)NCC(=O)N[C@H](CO)C(=O)N[C@H](Cc1c[nH]c2ccccc12)C(=O)N[C@@H](CO)C(=O)N[C@@H](CCN)C(=O)N[C@H](CCN)C(=O)N[C@@H](Cc1ccccc1)C(=O)N[C@@H](CCC(=O)O)C(=O)N[C@H](C(=O)N[C@@H](C(=O)N[C@@H](C)C(=O)O)[C@@H](C)CC)C(C)C)C(C)C [Peptide 1, Oct-TriA1, reference compound]	% haemolysis	89.6

From here, focus on the item given below.
// query % haemolysis value for entry CCCCCCCC(=O)N[C@@H](C(=O)N[C@H](CCCCN)C(=O)NCC(=O)N[C@H](CO)C(=O)N[C@H](Cc1c[nH]c2ccccc12)C(=O)N[C@@H](CO)C(=O)N[C@@H](CCCCN)C(=O)N[C@H](CCN)C(=O)N[C@@H](Cc1ccccc1)C(=O)N[C@@H](CCC(=O)O)C(=O)N[C@H](C(=O)N[C@@H](C(=O)N[C@@H](C)C(=O)O)[C@@H](C)CC)C(C)C)C(C)C [Peptide 4, Oct-TriA1 (2-D-Lys, 7-Lys)] (Octanoyl-[dV][dK]G[dS][dW]SK[dDab]FEV[d(aIle)]A-OH)
71.4

----------
Tested on: Equine erythrocytes
Assay type: cell-based, horse
Details: red cells of equine, 100 μg mL^–1
Where a SMILES comes first, the peptide text is derived from it. [ ]: non-standard residue; d: D form. The star is where a group is joined. d(aIle) = CC[C@H](C)[C@@H](N)C(=O)O; dOrn = NCCC[C@@H](N)C(=O)O; dDab = NCC[C@@H](N)C(=O)O; Octanoyl = CCCCCCCC(=O)*; Orn = NCCC[C@H](N)C(=O)O; Dab = NCC[C@H](N)C(=O)O
parameterMeasured: % haemolysis (%)
Numeric only. Scale: %

molecule	valueUnit	% haemolysis
CCCCCCCC(=O)N[C@@H](C(=O)N[C@H](CCN)C(=O)NCC(=O)N[C@H](CO)C(=O)N[C@H](Cc1c[nH]c2ccccc12)C(=O)N[C@@H](CO)C(=O)N[C@@H](CCN)C(=O)N[C@H](CCN)C(=O)N[C@@H](Cc1ccccc1)C(=O)N[C@@H](CCC(=O)O)C(=O)N[C@H](C(=O)N[C@@H](C(=O)N[C@@H](C)C(=O)O)C(C)C)C(C)C)C(C)C [Peptide 2, Oct-TriA2] (Octanoyl-[dV][dDab]G[dS][dW]S[Dab][dDab]FEV[dV]A-OH)	%	52.1
CCCCCCCC(=O)N[C@@H](C(=O)N[C@H](CCCN)C(=O)NCC(=O)N[C@H](CO)C(=O)N[C@H](Cc1c[nH]c2ccccc12)C(=O)N[C@@H](CO)C(=O)N[C@@H](CCCN)C(=O)N[C@H](CCCN)C(=O)N[C@@H](Cc1ccccc1)C(=O)N[C@@H](CCC(=O)O)C(=O)N[C@H](C(=O)N[C@@H](C(=O)N[C@@H](C)C(=O)O)[C@@H](C)CC)C(C)C)C(C)C [Peptide 5, Oct-TriA1 (2,8-D-Orn, 7-Orn)] (Octanoyl-[dV][dOrn]G[dS][dW]S[Orn][dOrn]FEV[d(aIle)]A-OH)	%	77.5
CCCCCCCC(=O)N[C@@H](C(=O)N[C@H](CCCN)C(=O)NCC(=O)N[C@H](CO)C(=O)N[C@H](Cc1c[nH]c2ccccc12)C(=O)N[C@@H](CO)C(=O)N[C@@H](CCCN)C(=O)N[C@H](CCN)C(=O)N[C@@H](Cc1ccccc1)C(=O)N[C@@H](CCC(=O)O)C(=O)N[C@H](C(=O)N[C@@H](C(=O)N[C@@H](C)C(=O)O)[C@@H](C)CC)C(C)C)C(C)C [Peptide 3, Oct-TriA1 (2-D-Orn, 7-Orn)] (Octanoyl-[dV][dOrn]G[dS][dW]S[Orn][dDab]FEV[d(aIle)]A-OH)	%	66.7

From here, focus on the item given below.
// query % haemolysis value for entry CCCCCCCC(=O)N[C@@H](C(=O)N[C@H](CCCCN)C(=O)NCC(=O)N[C@H](CO)C(=O)N[C@H](Cc1c[nH]c2ccccc12)C(=O)N[C@@H](CO)C(=O)N[C@@H](CCCCN)C(=O)N[C@H](CCCCN)C(=O)N[C@@H](Cc1ccccc1)C(=O)N[C@@H](CCC(=O)O)C(=O)N[C@H](C(=O)N[C@@H](C(=O)N[C@@H](C)C(=O)O)C(C)C)C(C)C)C(C)C [Peptide 8, Oct-TriA2 (2,8-D-Lys, 7-Lys)] (HELM PEPTIDE1{[CCCCCCCC(=O)[*:2]].[dV].[dK].G.[dS].[dW].S.K.[dK].F.E.V.[dV].A}$$$$V2.0)
2.8

----------
Test system: A. baumannii ACM 29
Format: cell-based, Acinetobacter baumannii
Conditions: ACM 29, 18 h
Where a SMILES comes first, the peptide text is derived from it. [ ]: non-standard residue; d: D form. The star is where a group is joined. dOrn = NCCC[C@@H](N)C(=O)O; dDab = NCC[C@@H](N)C(=O)O; Octanoyl = CCCCCCCC(=O)*; Orn = NCCC[C@H](N)C(=O)O; Dab = NCC[C@H](N)C(=O)O
parameterMeasured: Peptide MIC (μg mL^–1)
Numeric only. Scale: μg mL^–1

# count of solved cases: 2
compound	parameterMeasured	endpointValue
CCCCCCCC(=O)N[C@@H](C(=O)N[C@H](CCCN)C(=O)NCC(=O)N[C@H](CO)C(=O)N[C@H](Cc1c[nH]c2ccccc12)C(=O)N[C@@H](CO)C(=O)N[C@@H](CCCN)C(=O)N[C@H](CCCN)C(=O)N[C@@H](Cc1ccccc1)C(=O)N[C@@H](CCC(=O)O)C(=O)N[C@H](C(=O)N[C@@H](C(=O)N[C@@H](C)C(=O)O)C(C)C)C(C)C)C(C)C [Peptide 7, Oct-TriA2 (2,8-D-Orn, 7-Orn)] (Octanoyl-[dV][dOrn]G[dS][dW]S[Orn][dOrn]FEV[dV]A-OH)	Peptide MIC	50
CCCCCCCC(=O)N[C@@H](C(=O)N[C@H](CCN)C(=O)NCC(=O)N[C@H](CO)C(=O)N[C@H](Cc1c[nH]c2ccccc12)C(=O)N[C@@H](CO)C(=O)N[C@@H](CCN)C(=O)N[C@H](CCN)C(=O)N[C@@H](Cc1ccccc1)C(=O)N[C@@H](CCC(=O)O)C(=O)N[C@H](C(=O)N[C@@H](C(=O)N[C@@H](C)C(=O)O)[C@@H](C)CC)C(C)C)C(C)C [Peptide 1, Oct-TriA1, reference compound]	Peptide MIC	25

From here, focus on the item given below.
// query Peptide MIC value for entry CCCCCCCC(=O)N[C@@H](C(=O)N[C@H](CCN)C(=O)NCC(=O)N[C@H](CO)C(=O)N[C@H](Cc1c[nH]c2ccccc12)C(=O)N[C@@H](CO)C(=O)N[C@@H](CCN)C(=O)N[C@H](CCN)C(=O)N[C@@H](Cc1ccccc1)C(=O)N[C@@H](CCC(=O)O)C(=O)N[C@H](C(=O)N[C@@H](C(=O)N[C@@H](C)C(=O)O)C(C)C)C(C)C)C(C)C [Peptide 2, Oct-TriA2] (Octanoyl-[dV][dDab]G[dS][dW]S[Dab][dDab]FEV[dV]A-OH)
50

----------
Tested on: K. pneumoniae IMP 204
Assay type: cell-based, Klebsiella pneumoniae
Details: IMP 204, 18 h
Where a SMILES comes first, the peptide text is derived from it. [ ]: non-standard residue; d: D form. The star is where a group is joined. d(aIle) = CC[C@H](C)[C@@H](N)C(=O)O; dOrn = NCCC[C@@H](N)C(=O)O; dDab = NCC[C@@H](N)C(=O)O; Octanoyl = CCCCCCCC(=O)*; Orn = NCCC[C@H](N)C(=O)O
parameterMeasured: Peptide MIC
Please report the result as a number followed by the unit.

// query Peptide MIC value for entry CCCCCCCC(=O)N[C@@H](C(=O)N[C@H](CCCN)C(=O)NCC(=O)N[C@H](CO)C(=O)N[C@H](Cc1c[nH]c2ccccc12)C(=O)N[C@@H](CO)C(=O)N[C@@H](CCCN)C(=O)N[C@H](CCN)C(=O)N[C@@H](Cc1ccccc1)C(=O)N[C@@H](CCC(=O)O)C(=O)N[C@H](C(=O)N[C@@H](C(=O)N[C@@H](C)C(=O)O)[C@@H](C)CC)C(C)C)C(C)C [Peptide 3, Oct-TriA1 (2-D-Orn, 7-Orn)] (Octanoyl-[dV][dOrn]G[dS][dW]S[Orn][dDab]FEV[d(aIle)]A-OH)
25 μg mL^–1
